- MEASURED_TARGET: wild-type human ALK (cytoplasmic domain, amino acids 1058-1620, N-terminal GST fusion) (Homo sapiens, UniProt Q9UM73)
- Construct: The cytoplasmic domain (amino acids 1058-1620) of wild-type human ALK; GST (N); made in house; host or cells: SF9 insect cells
- Sequence (Q9UM73 1058-1620): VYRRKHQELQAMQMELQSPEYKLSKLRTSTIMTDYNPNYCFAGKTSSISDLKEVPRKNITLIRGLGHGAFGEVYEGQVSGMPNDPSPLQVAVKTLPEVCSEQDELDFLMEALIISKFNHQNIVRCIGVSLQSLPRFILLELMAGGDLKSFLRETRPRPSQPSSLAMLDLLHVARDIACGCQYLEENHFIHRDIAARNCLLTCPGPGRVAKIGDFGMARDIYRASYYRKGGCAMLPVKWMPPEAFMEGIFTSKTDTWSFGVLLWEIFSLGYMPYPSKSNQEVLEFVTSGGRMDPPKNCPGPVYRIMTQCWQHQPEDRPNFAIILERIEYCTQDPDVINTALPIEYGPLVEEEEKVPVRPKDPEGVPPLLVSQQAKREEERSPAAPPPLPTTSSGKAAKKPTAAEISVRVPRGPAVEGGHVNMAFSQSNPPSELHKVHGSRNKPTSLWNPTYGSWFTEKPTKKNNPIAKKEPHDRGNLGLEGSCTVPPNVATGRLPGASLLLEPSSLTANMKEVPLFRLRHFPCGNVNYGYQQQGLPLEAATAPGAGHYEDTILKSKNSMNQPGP
- PROTOCOL: ALK Inhibition in Enzyme Assay (Lance TR-FRET kinase assay)
- Assay type: biochemical
Where a name gives a salt, the structure may show the parent alone.
Measured IC50, listed per entry.

[
  {
    "COMPOUND": "CC(C)NC(=O)[C@H]1CC[C@@H](n2/c(=N/C(=O)c3ccc(F)cc3)[nH]c3cnc(OC4CCN(CC(=O)O)CC4)cc32)CC1 [Example 168, hydrochloride]",
    "IC50": "< 50 nM"
  },
  {
    "COMPOUND": "CC(C)NC(=O)[C@H]1CC[C@@H](n2/c(=N/C(=O)c3ccc(F)cc3)[nH]c3cnc(NCCN4CCOCC4)cc32)CC1",
    "IC50": "< 50 nM"
  },
  {
    "COMPOUND": "CONC(=O)[C@H]1CC[C@@H](n2/c(=N/C(=O)c3ccc(F)cc3)[nH]c3ccc(CN4CCC(C(C)(C)O)CC4)cc32)CC1",
    "IC50": "< 50 nM"
  },
  {
    "COMPOUND": "COC(=O)[C@H]1CC[C@@H](n2/c(=N/C(=O)c3ccc(F)cc3)[nH]c3ccc(CN4CCC(C(C)(C)O)CC4)cc32)CC1",
    "IC50": "< 50 nM"
  },
  {
    "COMPOUND": "O=C(/N=c1\\[nH]c2ccc(CN3CCCCC3)cc2n1[C@H]1CC[C@@H](C(=O)NCC(F)(F)F)CC1)c1ccc(F)cc1",
    "IC50": "< 50 nM"
  },
  {
    "COMPOUND": "CC(C)NC(=O)[C@H]1CC[C@@H](n2/c(=N/C(=O)c3cc(F)cc(F)c3)[nH]c3cnc(OCCN4CCCCC4)cc32)CC1",
    "IC50": "< 50 nM"
  },
  {
    "COMPOUND": "CC(C)NC(=O)[C@H]1CC[C@@H](n2/c(=N/C(=O)c3ccc(F)cc3)[nH]c3cnc(S(C)(=O)=O)cc32)CC1",
    "IC50": "< 50 nM"
  },
  {
    "COMPOUND": "CC(C)NC(=O)[C@H]1CC[C@@H](n2/c(=N/C(=O)c3ccc(F)cc3)[nH]c3ccc(CN4CCC[C@@H]4C(=O)O)cc32)CC1 [Example 53, hydrochloride]",
    "IC50": "< 50 nM"
  },
  {
    "COMPOUND": "CCNC(=O)[C@H]1CC[C@@H](n2/c(=N/C(=O)c3ccccc3)[nH]c3cnc(OCCN4CCCCC4)cc32)CC1",
    "IC50": "< 50 nM"
  },
  {
    "COMPOUND": "CC(C)(CO)NC(=O)[C@H]1CC[C@@H](n2/c(=N/C(=O)c3ccc(F)cc3)[nH]c3ccc(CN4CCOCC4)cc32)CC1",
    "IC50": "< 50 nM"
  },
  {
    "COMPOUND": "COC(=O)[C@H]1CC[C@@H](n2c(NC(=O)c3ccc(F)cc3)nc3ccc(CN4CCCCC4)cc32)CC1",
    "IC50": "< 50 nM"
  },
  {
    "COMPOUND": "CC(C)NC(=O)[C@H]1CC[C@@H](n2/c(=N/C(=O)c3ccc(F)cc3)[nH]c3ccc(CN4CCC(CNCC(F)(F)F)CC4)cc32)CC1",
    "IC50": "< 50 nM"
  },
  {
    "COMPOUND": "CC(C)NC(=O)[C@H]1CC[C@@H](n2/c(=N/C(=O)c3ccc(F)cc3)[nH]c3ccc(CN4CCn5c(nnc5C(C)(C)O)C4)cc32)CC1",
    "IC50": "< 50 nM"
  },
  {
    "COMPOUND": "CC(C)NC(=O)[C@H]1CC[C@@H](n2/c(=N/C(=O)c3ccc(F)cc3)[nH]c3cnc(N4CCN(C)CC4)cc32)CC1",
    "IC50": "< 50 nM"
  },
  {
    "COMPOUND": "COc1cc(C(=O)/N=c2\\[nH]c3cnc(OCCN4CCCCC4)cc3n2[C@H]2CC[C@@H](C(=O)NC(C)C)CC2)ccc1F",
    "IC50": "100 to 1000 nM"
  },
  {
    "COMPOUND": "CC(C)NC(=O)[C@H]1CC[C@@H](n2/c(=N/C(=O)N3CCOCC3)[nH]c3cnc(OCCN4CCCCC4)cc32)CC1",
    "IC50": "100 to 1000 nM"
  },
  {
    "COMPOUND": "CC(C)NC(=O)[C@H]1CC[C@@H](n2/c(=N/C(=O)c3ccc(F)cc3)[nH]c3ccc(CO)cc32)CC1",
    "IC50": "< 50 nM"
  },
  {
    "COMPOUND": "CC(C)NC(=O)[C@H]1CC[C@@H](n2/c(=N/C(=O)c3ccc(F)cc3)[nH]c3cnc(OC4CCN(CC(=O)OC(C)(C)C)CC4)cc32)CC1",
    "IC50": "< 50 nM"
  },
  {
    "COMPOUND": "C[C@@H]1CN(C(=O)OC(C)(C)C)CCN1C(=O)[C@H]1CC[C@@H](n2/c(=N/C(=O)c3ccc(F)cc3)[nH]c3cnc(OCCN4CCCCC4)cc32)CC1",
    "IC50": "100 to 1000 nM"
  }
]

---

- MEASURED_TARGET: wild-type human ALK (cytoplasmic domain, amino acids 1058-1620, N-terminal GST fusion) (Homo sapiens)
- Construct: The cytoplasmic domain (amino acids 1058-1620) of wild-type human ALK; GST (N); made in house; host or cells: SF9 insect cells
- PROTOCOL: ALK Inhibition in Enzyme Assay (Lance TR-FRET kinase assay)
- Format: biochemical
pIC50: −log10 of the molar value.

[
  {
    "SMILES_STRUCTURE": "CC(C)NC(=O)[C@H]1CC[C@@H](n2/c(=N/C(=O)c3ccc(F)cc3)[nH]c3ccc(CN4CCC(CC(=O)O)CC4)cc32)CC1",
    "pIC50": "> 7.30"
  },
  {
    "SMILES_STRUCTURE": "CC(C)NC(=O)[C@H]1CC[C@@H](n2/c(=N/C(=O)c3ccc(C#N)cc3)[nH]c3cnc(OCCN4CCCCC4)cc32)CC1",
    "pIC50": "> 7.30"
  },
  {
    "SMILES_STRUCTURE": "COC(=O)[C@H]1CC[C@@H](n2/c(=N/C(=O)c3ccccc3)[nH]c3cnc(OCCN4CCCCC4)cc32)CC1",
    "pIC50": "> 7.30"
  },
  {
    "SMILES_STRUCTURE": "CCOC(=O)[C@H]1CC[C@@H](n2/c(=N/C(=O)c3cccc(F)c3)[nH]c3cnc(OCCO)cc32)CC1",
    "pIC50": "> 7.30"
  },
  {
    "SMILES_STRUCTURE": "CNCC(=O)N1CCC(n2/c(=N/C(=O)c3ccccc3)[nH]c3cnc(OCCN4CCCCC4)cc32)CC1",
    "pIC50": "6.00 to 7.00"
  },
  {
    "SMILES_STRUCTURE": "C=CCNS(=O)(=O)c1cccc(C(=O)/N=c2\\[nH]c3ccc(CN4CCC(C(C)(C)O)CC4)cc3n2[C@H]2CC[C@@H](C(N)=O)CC2)c1",
    "pIC50": "> 7.30"
  },
  {
    "SMILES_STRUCTURE": "CC(C)NC(=O)[C@H]1CC[C@@H](n2/c(=N/C(=O)c3ccc4ccsc4c3)[nH]c3cnc(OCCN4CCCCC4)cc32)CC1",
    "pIC50": "7.00 to 7.30"
  },
  {
    "SMILES_STRUCTURE": "C[C@@H]1CN(C(=O)OC(C)(C)C)CCN1C(=O)[C@H]1CC[C@@H](n2/c(=N/C(=O)c3ccc(C#N)cc3)[nH]c3cnc(OCCN4CCCCC4)cc32)CC1",
    "pIC50": "> 7.30"
  }
]
